system.tested: T1, Peptide 4: Biotin-AGGGGSGGGGSGGGGSAAA-Tyr-acid (N-terminal biotin; C-terminal acid; no PC)
T1 construct: control peptide without PC
T1 peptide: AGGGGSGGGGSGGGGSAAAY
test.description: scFv ELISA
recorded.metric: OD450 (OD450)
Entry rule: numbers only, all in OD450.

Consider the worked cases shown below.
binder: PcOxP_DB01_D01 (scFv, V domains shown, scFv in periplasmic extract) VH: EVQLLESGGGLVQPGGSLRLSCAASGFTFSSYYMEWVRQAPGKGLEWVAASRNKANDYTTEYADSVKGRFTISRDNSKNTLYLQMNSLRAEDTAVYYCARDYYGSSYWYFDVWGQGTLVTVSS VL: DIVMTQSPDSLAVSLGERATINCTASESLYSPKHKVHYLAWYQQKPGQPPKLLIYGASNRYIGVPDRFSGSGSGTDFTLTISSLQAEDVAVYYCAQFYIYPLTFGGGTKVEIK
recorded.metric: OD450
scale.unit: OD450
value.reported: 0.05
--
binder: PcOxP_DB01_B06 (scFv, V domains shown, scFv in periplasmic extract) VH: EVQLLESGGGLVQPGGSLRLSCAASGFTFSSYYMEWVRQAPGKGLEWVAASRNKYNDYTTEYADSVKGRFTISRDNSKNTLYLQMNSLRAEDTAVYYCARDYYGSSTWYFDVWGQGTLVTVSS VL: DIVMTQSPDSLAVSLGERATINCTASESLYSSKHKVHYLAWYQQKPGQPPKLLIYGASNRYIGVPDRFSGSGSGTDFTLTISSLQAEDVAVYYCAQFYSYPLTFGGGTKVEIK
recorded.metric: OD450
scale.unit: OD450
value.reported: 0.05
--
binder: PcOxP_DB01_H03 (scFv, V domains shown, scFv in periplasmic extract) VH: EVQLLESGGGLVQPGGSLRLSCAASGFTFSDHYMEWVRQAPGKGLEWVAASRGKGNSYTTAYADSVKGRFTISRDNSKNTLYLQMNSLRAEDTAVYYCARDYYGSSYWYFDVWGQGTLVTVSS VL: DIVMTQSPDSLAVSLGERATINCTASESLYSSKHKVHYLAWYQQKPGQPPKLLIYGAGNRYIGVPDRFSGSGSGTDFTLTISSLQAEDVAVYYCAQFYHYPLTFGGGTKVEIK
recorded.metric: OD450
scale.unit: OD450
value.reported: 0.07
--
binder: PcOxP_DB01_E07 (scFv, V domains shown, scFv in periplasmic extract) VH: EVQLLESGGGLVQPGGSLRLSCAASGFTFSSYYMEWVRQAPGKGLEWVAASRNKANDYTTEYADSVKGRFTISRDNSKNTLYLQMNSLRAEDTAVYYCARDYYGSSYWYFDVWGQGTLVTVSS VL: DIVMTQSPDSLAVSLGERATINCTASESLYSSKHKVDYLAWYQQKPGQPPKLLIYGASNRYIGVPDRFSGSGSGTDFTLTISSLQAEDVAVYYCAQFYSYPLTFGGGTKVEIK
recorded.metric: OD450
scale.unit: OD450
value.reported: 0.05

Attention now turns to another entry.
Record summary for PcOxP_DB01_D07 (scFv, V domains shown, scFv in periplasmic extract) VH: EVQLLESGGGLVQPGGSLRLSCAASGFTFSDYYMEWVRQAPGKGLEWVAASRNKANDYTTEYADSVKGRFTISRDNSKNTLYLQMNSLRAEDTAVYYCARDYYGDSYWYFDVWGQGTLVTVSS VL: DIVMTQSPDSLAVSLGERATINCKASQSVLSSKNNVNYLAWYQQKPGQPPKLLIYGASNRYSGVPDRFSGSGSGTDFTLTISSLQAEDVAVYYCAQFYSYPLTFGGGTKVEIK : reported OD450 = 0.04
